experiment: First anodic oxidation potential by differential pulse voltammetry (DPV); format: physicochemical; details: DPV, first anodic peak, 0.25 mM standard in 0.1 M Britton-Robinson buffer pH 6.0 in 80% methanol, glassy carbon vs Ag/AgCl, 100 mV/s
Marks after values point to notes of the source that are not given here.
// values below are reported Anodic Peak Potential Epa
observed property: Anodic Peak Potential Epa

>>> print(df.to_string())
                                   molecule         reading
0  Oc1cc(O)c2cc(O)c(-c3ccc(O)c(O)c3)[o+]c2c1 [Cyanidin]   295 ± 3 ^h mV
1  O=c1c(O)c(-c2ccc(O)c(O)c2)oc2cc(O)cc(O)c12 [Quercetin]   330 ± 4 ^g mV
2  Oc1ccc(-c2[o+]c3cc(O)cc(O)c3cc2O)cc1 [Pelargonidin]   228 ± 5 ^j mV
3        O=C(O)c1cc(O)ccc1O [Gentisic acid]   622 ± 8 ^c mV
4  O=c1cc(-c2ccc(O)c(O)c2)oc2cc(O)cc(O)c12 [Luteolin]   407 ± 5 ^f mV
5       COc1cc(C(=O)O)ccc1O [Vanillic acid]  748 ± 10 ^a mV
6  O=c1cc(-c2ccc(O)cc2)oc2cc(OC3O[C@H](CO)[C@@H](O)[C@H](O)[C@H]3O)cc(O)c12 (stereo partly drawn) [Apigenin-7-O-glucoside]  841 ± 6 ^ab mV
7  O=c1c(OC2OC(CO)C(O)C(O)C2O)c(-c2ccc(O)cc2)oc2cc(O)cc(O)c12 (stereo not drawn) [Kaempferol-3-O-glucoside]  359 ± 3 ^fg mV
8                COC(=O)CCc1ccc(O)cc1 [MET]   574 ± 5 ^f mV

----------
target: Angiotensin-converting enzymes (ACE) from porcine kidneys (EC 3.4.15.1) (Sus scrofa, UniProt F1RRW5); construct: Angiotensin-converting enzymes (ACE) from porcine kidneys (EC 3.4.15.1) were purchased from Sigma-Aldrich; purchased Sigma-Aldrich (St. Louis, MO, USA); host or cells: porcine kidneys (tissue-derived enzyme); assay: biochemical; settings: ACE inhibition, glycoside vs aglycon
Sequence (F1RRW5 34-1309): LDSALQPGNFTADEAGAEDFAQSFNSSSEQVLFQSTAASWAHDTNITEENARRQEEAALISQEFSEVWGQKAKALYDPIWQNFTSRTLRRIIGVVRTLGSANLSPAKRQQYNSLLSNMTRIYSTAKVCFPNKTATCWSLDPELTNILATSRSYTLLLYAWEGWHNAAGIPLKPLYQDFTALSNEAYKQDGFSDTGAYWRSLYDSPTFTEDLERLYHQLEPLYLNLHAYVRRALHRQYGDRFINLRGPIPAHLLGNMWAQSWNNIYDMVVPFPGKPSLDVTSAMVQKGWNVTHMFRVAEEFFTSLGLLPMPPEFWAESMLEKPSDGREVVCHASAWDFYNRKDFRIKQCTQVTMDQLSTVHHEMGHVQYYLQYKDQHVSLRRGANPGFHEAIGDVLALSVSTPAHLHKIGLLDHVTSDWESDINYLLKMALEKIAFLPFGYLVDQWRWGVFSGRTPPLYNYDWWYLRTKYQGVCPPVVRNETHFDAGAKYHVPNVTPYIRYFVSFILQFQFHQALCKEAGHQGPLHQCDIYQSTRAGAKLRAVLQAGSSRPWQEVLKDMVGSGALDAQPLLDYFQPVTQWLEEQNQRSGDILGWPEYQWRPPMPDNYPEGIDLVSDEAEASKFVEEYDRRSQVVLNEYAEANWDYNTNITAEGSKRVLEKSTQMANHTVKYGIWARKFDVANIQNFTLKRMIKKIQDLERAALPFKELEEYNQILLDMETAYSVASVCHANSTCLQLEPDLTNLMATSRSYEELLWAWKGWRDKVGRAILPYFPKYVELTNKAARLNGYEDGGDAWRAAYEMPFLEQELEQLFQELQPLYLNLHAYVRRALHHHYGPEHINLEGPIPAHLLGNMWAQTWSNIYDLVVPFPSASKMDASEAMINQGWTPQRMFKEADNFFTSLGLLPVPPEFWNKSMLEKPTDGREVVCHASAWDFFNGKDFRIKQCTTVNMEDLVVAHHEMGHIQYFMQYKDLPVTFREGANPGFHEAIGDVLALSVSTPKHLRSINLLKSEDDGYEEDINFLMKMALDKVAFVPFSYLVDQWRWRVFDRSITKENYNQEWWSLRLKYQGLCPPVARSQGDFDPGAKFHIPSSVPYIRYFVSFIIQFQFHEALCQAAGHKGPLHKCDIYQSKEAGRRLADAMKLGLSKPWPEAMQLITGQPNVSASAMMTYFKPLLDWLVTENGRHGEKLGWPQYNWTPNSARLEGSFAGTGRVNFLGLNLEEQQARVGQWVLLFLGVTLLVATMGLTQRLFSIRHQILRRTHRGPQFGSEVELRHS
observed property: lower IC50 in relation to the respective aglycone (%)

compound	reading
O=c1cc(-c2ccc(O)cc2)oc2cc(OC3O[C@H](CO)[C@@H](O)[C@H](O)[C@H]3O)cc(O)c12 (stereo partly shown) [Apigenin-7-O-glucoside]	35
O=c1c(OC2OC(CO)C(O)C(O)C2O)c(-c2ccc(O)cc2)oc2cc(O)cc(O)c12 (stereo not shown) [Kaempferol-3-O-glucoside]	16
O=c1c(O)c(-c2ccc(O)cc2)oc2cc(OC3OC(CO)C(O)C(O)C3O)cc(O)c12 (stereo not shown) [Kaempferol-7-O-glucoside]	26
O=C1CC(c2ccc(O)cc2)Oc2cc(OC3OC(CO)C(O)C(O)C3O)cc(O)c21 (stereo not shown) [Naringenin-7-O-glucoside]	9
C[C@@H]1O[C@@H](OC[C@H]2O[C@@H](Oc3c(-c4ccc(O)c(O)c4)oc4cc(O)cc(O)c4c3=O)[C@H](O)[C@@H](O)[C@@H]2O)[C@H](O)[C@H](O)[C@H]1O [Rutin, quercetin-O-3-rutinoside]	50
O=c1cc(-c2ccc(O)c(O)c2)oc2cc(OC3OC(CO)C(O)C(O)C3O)cc(O)c12 (stereo not shown) [Luteolin-7-O-glucoside]	20
OCC1OC(Oc2cc3c(O)cc(O)cc3[o+]c2-c2cc(O)c(O)c(O)c2)C(O)C(O)C1O (stereo not shown) [Delphinidin-3-O-glucoside]	16

----------
assay: First anodic oxidation potential by differential pulse voltammetry (DPV); format: physicochemical; conditions: DPV, first anodic peak, 0.25 mM standard in 0.1 M Britton-Robinson buffer pH 6.0 in 80% methanol, glassy carbon vs Ag/AgCl, 100 mV/s
Marks after values point to notes of the source that are not given here.
observed property: Anodic Peak Potential Epa

compound	observed property	reading
O=C1CC(c2ccc(O)cc2)Oc2cc(OC3OC(CO)C(O)C(O)C3O)cc(O)c21 (stereo not drawn) [Naringenin-7-O-glucoside]	Anodic Peak Potential Epa	830 ± 8 ^ab mV
C[C@@H]1O[C@@H](OC[C@H]2O[C@@H](Oc3c(-c4ccc(O)c(O)c4)oc4cc(O)cc(O)c4c3=O)[C@H](O)[C@@H](O)[C@@H]2O)[C@H](O)[C@H](O)[C@H]1O [Rutin, quercetin-O-3-rutinoside]	Anodic Peak Potential Epa	389 ± 4 ^g mV
O=C(O)Cc1ccc(O)cc1 [4-HPAA, 4-hydroxyphenylacetic acid]	Anodic Peak Potential Epa	815 ± 12 ^c mV

----------
test: First anodic oxidation potential by differential pulse voltammetry (DPV); type: physicochemical; conditions: DPV, first anodic peak, 0.25 mM standard in 0.1 M Britton-Robinson buffer pH 6.0 in 80% methanol, glassy carbon vs Ag/AgCl, 100 mV/s
Marks after values point to notes of the source that are not given here.
// values below are reported Anodic Peak Potential Epa
observed property: Anodic Peak Potential Epa

>>> df
                                   molecule          observed_property         reading
0  OCC1OC(Oc2cc3c(O)cc(O)cc3[o+]c2-c2ccc(O)c(O)c2)C(O)C(O)C1O (stereo not shown) [Cyanidin-3-O-glucoside]  Anodic Peak Potential Epa   373 ± 4 ^g mV
1      O=c1cc(-c2ccc(O)cc2)oc2cc(O)cc(O)c12  Anodic Peak Potential Epa   810 ± 6 ^c mV
2  OCC1OC(Oc2cc3c(O)cc(O)cc3[o+]c2-c2ccc(O)cc2)C(O)C(O)C1O (stereo not shown) [Pelargonidin-3-O-glucoside]  Anodic Peak Potential Epa   473 ± 5 ^d mV
3   O=c1c(O)c(-c2ccc(O)cc2)oc2cc(O)cc(O)c12  Anodic Peak Potential Epa   394 ± 4 ^g mV
4                  COc1cc(/C=C/C(=O)O)ccc1O  Anodic Peak Potential Epa   611 ± 6 ^c mV
5                      O=C(O)C=Cc1ccc(O)cc1  Anodic Peak Potential Epa  672 ± 10 ^b mV
6  O=C(O)CCc1ccc(O)c(O)c1 [3,4-DHPPA, 3-(3,4-dihydroxyphenyl)propionic acid]  Anodic Peak Potential Epa   218 ± 3 ^h mV
7                 O=C(O)/C=C/c1ccc(O)c(O)c1  Anodic Peak Potential Epa   397 ± 8 ^e mV
8  Oc1cc(O)c2cc(O)c(-c3cc(O)c(O)c(O)c3)[o+]c2c1  Anodic Peak Potential Epa   259 ± 3 ^i mV
9                      O=C(O)c1ccc(O)c(O)c1  Anodic Peak Potential Epa  417 ± 12 ^e mV

----------
target: Angiotensin-converting enzymes (ACE) from porcine kidneys (EC 3.4.15.1) (Sus scrofa, UniProt F1RRW5); construct: Angiotensin-converting enzymes (ACE) from porcine kidneys (EC 3.4.15.1) were purchased from Sigma-Aldrich; purchased Sigma-Aldrich (St. Louis, MO, USA); host or cells: porcine kidneys (tissue-derived enzyme); test: biochemical; conditions: porcine kidney ACE, substrate Abz-Gly-Phe(NO2)-Pro, fluorescence after 30 min; mean ± SD; read-out: IC50 Value (ACE inhibitory activity)
pIC50: −log10 of the molar value.
// values below are reported pIC50

compound	pIC50
O=C(O)c1ccc(O)c(O)c1	2.21
O=C1CC(c2ccc(O)cc2)Oc2cc(OC3OC(CO)C(O)C(O)C3O)cc(O)c21 (centres unmarked) [Naringenin-7-O-glucoside]	3.45
O=c1cc(-c2ccc(O)cc2)oc2cc(OC3O[C@H](CO)[C@@H](O)[C@H](O)[C@H]3O)cc(O)c12 (some centres unmarked) [Apigenin-7-O-glucoside]	3.66
O=C(O)c1ccc(O)cc1 [4-HBA, 4-hydroxybenzoic acid]	3.10
O=c1cc(-c2ccc(OC3OC(CO)C(O)C(O)C3O)c(O)c2)oc2cc(O)cc(O)c12 (centres unmarked) [Luteolin-4′-O-glucoside]	4.05
O=C(O)CCc1ccccc1O [2-HPPA, 3-(2-hydroxyphenyl)propionic acid]	3.03
COc1cc(C(=O)O)ccc1O	2.39
O=C(O)CCc1ccc(O)c(O)c1 [3,4-DHPPA, 3-(3,4-dihydroxyphenyl)propionic acid]	3.21

----------
Assay: First anodic oxidation potential by differential pulse voltammetry (DPV)
Type: physicochemical
Conditions: DPV, first anodic peak, 0.25 mM standard in 0.1 M Britton-Robinson buffer pH 6.0 in 80% methanol, glassy carbon vs Ag/AgCl, 100 mV/s
Protocol: A potentiostat/galvanostat G 750 (Gamry Instruments, Warminster, USA) was used for voltametric experiments. […] The voltametric experiments were performed at room temperature using an electrochemical cell (volume 200 µL), to which the analyzed standard solution, mixed previously with the buffer solution, was introduced. […] For test purposes, the first anodic oxidation potential was recorded (mV).
Marks after values point to notes of the source that are not given here.
observed property: Anodic Peak Potential Epa

In [3]: df
Out[3]:
                                   molecule         reading
0  O=C(O)CCc1ccccc1O [2-HPPA, 3-(2-hydroxyphenyl)propionic acid]   781 ± 9 ^d mV
1  O=C(O)Cc1ccc(O)c(O)c1 [3,4-DHPAA, 3,4-dihydroxyphenylacetic acid]   432 ± 6 ^g mV
2  O=c1cc(-c2ccc(O)c(O)c2)oc2cc(OC3OC(CO)C(O)C(O)C3O)cc(O)c12 (centres unmarked) [Luteolin-7-O-glucoside]   445 ± 3 ^e mV
3  O=c1c(O)c(-c2ccc(O)cc2)oc2cc(OC3OC(CO)C(O)C(O)C3O)cc(O)c12 (centres unmarked) [Kaempferol-7-O-glucoside]   419 ± 6 ^f mV
4   COc1cc(C(=O)O)cc(OC)c1O [Syringic acid]   731 ± 9 ^a mV
5  O=C1C[C@@H](c2ccc(O)cc2)Oc2cc(O)cc(O)c21 [Naringenin]  819 ± 7 ^bc mV
6  OCC1OC(Oc2cc3c(O)cc(O)cc3[o+]c2-c2cc(O)c(O)c(O)c2)C(O)C(O)C1O (centres unmarked) [Delphinidin-3-O-glucoside]   453 ± 4 ^e mV
7  COc1cc(CC(=O)O)ccc1O [HVA, 2-(3-methoxy-4-hydroxyphenyl)acetic acid]   643 ± 5 ^e mV
